# Tested on: A549
# TEST PROTOCOL: Cytotoxic activity against human A549 bulk cells incubated for 72 hrs by Cell-titer-Glo luminescence assay
# Type: functional, cell-based
# DETAILS: A549, 72 h
ASSAY ENDPOINT: pIC50
Scale for pIC50: -log10 of concentration given in mol/L; no unit attached.

Record `CCN(CC)CCNC(=O)c1c(C)[nH]c(/C=C2\C(=O)Nc3cc(-c4cnc5ccccc5n4)ccc32)c1C` , field pIC50: 5.15

compound `O=C1Nc2ccc(-c3csc(-c4ccccc4)n3)cc2/C1=C/c1ccc(N2CCNCC2)cc1` , pIC50 observed: 5.24

In plain terms, `CCN(CC)CCNC(=O)c1c(C)[nH]c(/C=C2\C(=O)Nc3ccc(-c4ccc(-c5ccccc5)o4)cc32)c1C` has a documented pIC50 of 5.37

Lookup result for `CCN(CC)CCNC(=O)c1c(C)[nH]c(/C=C2\C(=O)Nc3ccc(-c4ccc(-c5ccccc5)nc4)cc32)c1C` ; measured pIC50: 5.64
